The origin of these recorded values is PubChem BioAssay AID192.

- Tested on: BDF1 mice, B16 melanoma ip, median survival T/C
- assay explanation: NCI In Vivo Anticancer Drug Screen. Data for tumor model B16 Melanoma (intraperitoneal) in B6D2F1 (BDF1) mice
- test conditions: endpoint: median survival time; dose: 1.5 mg/kg/injection; schedule: Q01DX009 (ip); vehicle: saline; higher = longer survival
Inconclusive results and toxic doses are left out.
Overview of reported T/C across a group of compounds:
quantity name: T/C

compound	quantity name	result
c1ccc([P+](C[P+](c2ccccc2)(c2ccccc2)c2ccccc2)(c2ccccc2)c2ccccc2)cc1	T/C	93 % of control
C=CCCCC[P+](c1ccccc1)(c1ccccc1)c1ccccc1	T/C	102 % of control
CCC1(O)CC(OC2CC(N(C)C)C(OC3CC4OC5CC(=O)C(C)OC5OC4C(C)O3)C(C)O2)c2c(cc3c(c2O)C(=O)c2c(O)ccc(O)c2C3=O)C1C(=O)OC (centres undefined)	T/C	105 % of control
CC12CCC3C(CCC4CC(OC(=O)Cc5ccc(N(CCCl)CCCl)cc5)CCC43C)C1CCC(=O)N2 (centres undefined)	T/C	121 % of control
